# System under test: T1, human LAG3-huFc recombinant protein (human, UniProt P18627 23-450, limits assumed, biotinylated in the runs with humanized and chimeric antibodies (Example 11))
# T1 construct: also called human LAG3-Fc; huLAG3-huFc; not shown: human Fc
# T1 sequence: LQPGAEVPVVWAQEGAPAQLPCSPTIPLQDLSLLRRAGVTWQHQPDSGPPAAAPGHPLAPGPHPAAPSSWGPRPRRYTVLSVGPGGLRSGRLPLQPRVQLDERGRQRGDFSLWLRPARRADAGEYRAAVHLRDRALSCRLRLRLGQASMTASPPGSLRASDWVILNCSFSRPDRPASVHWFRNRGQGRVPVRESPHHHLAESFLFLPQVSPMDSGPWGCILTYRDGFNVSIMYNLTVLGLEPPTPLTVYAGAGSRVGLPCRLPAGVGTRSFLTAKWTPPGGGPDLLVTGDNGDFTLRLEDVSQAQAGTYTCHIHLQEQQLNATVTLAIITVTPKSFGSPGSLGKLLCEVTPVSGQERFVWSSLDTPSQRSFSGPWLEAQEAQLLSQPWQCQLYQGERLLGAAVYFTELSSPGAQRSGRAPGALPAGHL
# Test summary: flow cytometry, blockade of human LAG3-huFc binding to MHC class II on Daudi cells
Value type: IC50 (nM)
# value in nM; strip the unit string

Binder	Numeric result
mouse anti-human LAG3 antibody LB148.4A10.1H1 (antibody, mouse IgG2a, V domains shown, also called Lag3 clone 4A10) VH: EVQLLQSGAELVRSGASVKLSCTASGFNIEDYYMHWMKQRPEQGLEWIGWIDPVNGDTEYAPKFQGKATMTADTSSNTAYLHLNSLTSEDTAVYYCNFYDGYLFAFWGQGTLVTVSA VL: DIVLTQAAPSVPVTPGESVSISCRSSKSLLHSDGNTYLYWLLQRPGQSPQLLIYRMSNLASGVPDRFSGSGSGTVFTLRISRLEAEDVGIYYCMQHLEYPFTFGGGTKLEIK	1.9

[ask] Fill in the blank: the reported IC50 of mouse anti-human LAG3 antibody LB145.22D2.E1.1D1 (antibody, mouse IgG2a, V domains shown, also called Lag3 clone 22D2; LB145.22D2.E1.D1) VH: EVLLLQSGPELVKPGTSVKIPCKASGYTFTDYNVDWVKQRHGKGLEWIGDINPNNGGTIYSQKFKGKATLTVDKSSSTAFMELRSLTSEDTAVYFCARNYRWFGAMDHWGQGTSVTVSS VL: DIVLTQSPASLAVSPGQRATISCKASQSLDYEGDSDMNWYQQKPGQPPRLLISGASNLESGIPARFSGSGSGTDFTVNIHPVEEEDAATYYCQQSTEDPRTFGGGTKLEIK is ____.
[reply] 2.1

[ask] Another binder: mouse anti-human LAG3 antibody LB148.19E8.G1.1A1 (antibody, mouse IgG2b, V domains shown, also called Lag3 clone 19E8) VH: QIRLQQSGPELVKPGASVKISCKASGSSFTDYYINWVKQKPGQGLEWIGWIYPGSGNSIYNENFKAKATLTVDTSSSTAYMHLSSLTSEDTAVYFCAREADYDDALDYWGQGTSVTVSS VL: HILLTQSPAILSVSPGERVSFSCRASQSIGTSIHWYQQRTNGSPRLLIKYASESISGIPSRFSGSGSGTDFTLSINSVESEDIADYYCQQSNSWPTYTFGGGTKLEIK
[reply] 2.8

[ask] How about this binder: mouse anti-human LAG3 antibody LB148.11C9.1C1 (antibody, mouse IgG1, V domains shown, also called Lag3 clone 11C9) VH: QVQLQQPGAELVMPGASAKMSCKASGYTLTDYWMHWVKQRPGQGLEWIGAIDISDSYSSYNQKFKGKATLTVDESSSTAYMQLTSLTSEDSAVYYCARSPFYNSRGGNYFDYWGQGTTLTVSS VL: DIQMTQTTSSLSASLGDRVTISCRASQDISNYLNWYQQKPDGTVKLLIYYTSRLHSGVPSRFSGSGSGTDYSLTISNLEQEDIATYFCQQGDTLPPWTFGGGTKLEIK
[reply] 2
